MEASUREMENT DESCRIPTION: High-throughput drug toxicity screening in the BPDCN cell line Gen2.2 (AID 1224824);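 further: cells exposed to compounds for 48 h before reading; 100% = DMSO and 0% = bortezomib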
CONDITION SET: Gen2.2 BPDCN cells; at 45.8 µM (top of the series) unless noted
METRIC NAME: cell viability, % of control (lower = more cytotoxic)

For orientation, consider the following solved cases.
INSERT INTO measurements (compound, reported_result) VALUES
  ('NC(=O)c1noc([C@H](CCCC2CCCCC2)CC(=O)NO)n1', '20%'),
  ('C[C@@H](N)c1ccc(C(=O)Nc2ccnc3[nH]ccc23)cc1', '6.34%'),
  ('Cc1ccccc1C(C(=O)NC1CCCCC1)N(C(=O)CNc1ccc(C#N)cc1)c1cccc(F)c1 (centres undefined)', '161%'),
  ('CC1(C)C(N(O)C(=O)Nc2ccc(Cl)cc2)N(c2ccc(Cl)cc2)C(=O)N1CC(=O)NN=CC=Cc1ccc([N+](=O)[O-])o1 (centres undefined)', '3.85%'),
  ('CC1=C(C(=O)Nc2cc3cn[nH]c3cc2F)C(c2ccc(C(F)(F)F)cc2)CC(=O)N1 (centres undefined)', '88.7%'),
  ('Cc1cn([C@@H]2C[C@@H](O)[C@H](CO)O2)c(=O)[nH]c1=O', '159%'),
  ('Cn1c(=O)c(Oc2ccc(F)cc2F)cc2cnc(NC3CCOCC3)nc21', '178%'),
  ('N=C1SC(=Cc2ccc(-c3ccc4c(c3)C(=O)NC4=O)o2)C(=O)N1c1ccc(Br)cc1', '13.7%'),
  ('CC(=O)OCC(=O)[C@@]12OC(C)(C)O[C@H]1C[C@H]1[C@@H]3C[C@H](F)C4=CC(=O)C=C[C@]4(C)[C@@]3(F)[C@@H](O)C[C@@]12C', '76.3%'),
  ('C[C@@H](O[C@H]1OCCN(Cc2n[nH]c(=O)[nH]2)[C@@H]1c1ccc(F)cc1)c1cc(C(F)(F)F)cc(C(F)(F)F)c1', '39.1%');

May I ask what cell viability, % of control (lower = more cytotoxic) has been recorded for CCCCc1ccc(NS(=O)(=O)c2ccc(C)c(C(=O)N3CCN(c4cccc(C)c4C)CC3)c2)cc1 ?
425%

May I ask what cell viability, % of control (lower = more cytotoxic) has been recorded for CC(C)c1c(C(=O)Nc2ccccc2)c(-c2ccccc2)c(-c2ccc(F)cc2)n1CC[C@H](O)C[C@@H](O)CC(=O)O ?
41.5%

May I ask what cell viability, % of control (lower = more cytotoxic) has been recorded for Cc1cnc(Nc2cccc(CN3CCOCC3)c2)nc1Nc1cccc(S(=O)(=O)NC(C)(C)C)c1 ?
14%

May I ask what cell viability, % of control (lower = more cytotoxic) has been recorded for CN1CCc2c(n(Cc3ccc(C(=O)NO)cc3)c3ccccc23)C1 ?
17.7%

May I ask what cell viability, % of control (lower = more cytotoxic) has been recorded for CCC(=O)OCC(=O)[C@@]1(OC(=O)CC)[C@@H](C)C[C@@H]2[C@H]3CCC4=CC(=O)C=C[C@]4(C)[C@@]3(F)[C@@H](O)C[C@@]21C ?
17.4%
